- MEASUREMENT NOTES: viability of uninfected HEp-2 cells – cell-based, HTS, cytotoxicity control for RSV inhibitor project, dose response (AID 2410)
- Type: functional
- TEST CONDITIONS: human respiratory syncytial virus
The source made the active and inactive calls.
Entries and their measured CC50 follow.
MEASURED PROPERTY: CC50

>>> endpoint_result("CC(=O)c1cc2c(s1)-c1cc(F)ccc1OC2")
"33.3 µM (active)"
>>> endpoint_result("Cc1ccc(C2CC(c3cccs3)=NN2S(=O)(=O)c2ccc(C)cc2)cc1 (stereo not given)")
"> 50 µM (active)"
>>> endpoint_result("Cc1ccc(-c2nn(-c3ccccc3)cc2/C=N/n2c(S)nnc2-c2cccs2)cc1")
"14.7 µM (active)"
>>> endpoint_result("Cc1ccccc1Nc1nc(N)nc(-c2oc3ccccc3c2C)n1")
"35.4 µM (active)"
>>> endpoint_result("O=C(OC(C(=O)Nc1ccc(Cl)cc1C(F)(F)F)c1ccccc1)c1c(Cl)cccc1Cl (stereo not given)")
"22.1 µM (active)"

----------
- STUDY TARGET: Cytochrome P450 3A4 (Homo sapiens);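 further: confirmatory qHTS run detecting inhibitors and substrates of CYP3A4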
- Sequence (P08684 whole entry): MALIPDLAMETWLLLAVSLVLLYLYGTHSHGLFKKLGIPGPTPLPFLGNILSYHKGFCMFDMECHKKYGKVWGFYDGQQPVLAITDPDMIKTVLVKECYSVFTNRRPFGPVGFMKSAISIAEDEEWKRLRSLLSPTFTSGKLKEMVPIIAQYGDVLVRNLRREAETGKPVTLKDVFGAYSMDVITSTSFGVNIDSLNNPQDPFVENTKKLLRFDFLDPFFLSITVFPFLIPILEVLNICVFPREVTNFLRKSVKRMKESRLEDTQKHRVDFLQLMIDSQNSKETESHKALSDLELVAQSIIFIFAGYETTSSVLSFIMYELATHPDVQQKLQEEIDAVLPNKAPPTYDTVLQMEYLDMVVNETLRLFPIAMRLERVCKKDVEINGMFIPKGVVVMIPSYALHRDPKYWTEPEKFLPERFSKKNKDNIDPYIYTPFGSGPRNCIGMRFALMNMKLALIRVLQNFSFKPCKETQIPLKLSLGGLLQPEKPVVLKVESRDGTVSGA
- TEST CONDITIONS: Potency
MEASURED PROPERTY: AC50

>>> endpoint_result("COc1ccc(-c2coc3ccc(OC4OC(COC(C)=O)C(OC(C)=O)C(OC(C)=O)C4OC(C)=O)cc3c2=O)cc1 (stereo not drawn)")
"1.58 µM (inconclusive)"
>>> endpoint_result("CC(C)Nc1ccc(Nc2ccccc2)cc1")
"25.1 µM (inconclusive)"
>>> endpoint_result("Cc1nc(Nc2ccccc2)c2nc(-c3ccccc3)n(CCCN3CCCCC3C)c2n1 (stereo not drawn)")
"12.6 µM (inconclusive)"
>>> endpoint_result("O=C1CC[C@@]23/C=C/C(=O)NCCCCNCCCNC(=O)/C=C/c4ccc(c2c4)OC3C1 (stereo partly drawn)")
"39.8 µM (inconclusive)"
>>> endpoint_result("CCCCNc1nc(C)nc2c1nc(C)n2CCC")
"31.6 µM (inconclusive)"
>>> endpoint_result("CC(=O)OC1CC(OC(C)=O)[C@]2(C)C(CC(=O)[C@]3(C)C2CC[C@@]2(C)C(C(=O)O)OC(=O)C4OC423)C1(C)C (stereo partly drawn)")
"39.8 µM (inconclusive)"
>>> endpoint_result("O=NN(O)c1ccccc1")
"31.6 µM (inconclusive)"
>>> endpoint_result("COC(=O)C1(C)C=CC2(CCCCC2)N1C(C)=O (stereo not drawn)")
"15.8 µM (inconclusive)"

----------
- MEASUREMENT NOTES: DRD fibroblast viability loss – cell-based, non-viral oncogenic, luminescence, dose response (AID 1934)
- Type: functional
- TEST CONDITIONS: Homo sapiens
Activity calls are given as the source filed them.
Reported EC50 values follow for various molecules
MEASURED PROPERTY: EC50

>>> endpoint_result("Cc1ccc2nc(-c3ccccc3)cn2c1")
"7.45 µM (active)"
>>> endpoint_result("COc1nc(Nc2nc(O)c3ccccc3n2)nc2ccc(C)cc12")
"2.3 µM (active)"
>>> endpoint_result("COc1ccc(N2CCc3c(C)nc4c(OC)cccc4c32)cc1")
"2.68 µM (active)"
>>> endpoint_result("[O-]c1ccccc1-[n+]1c(-c2ccccc2)cc(-c2ccccc2)cc1-c1ccccc1")
"11.4 µM (active)"

----------
// IC50 lookup, one value per entry
- STUDY TARGET: Eukaryotic translation initiation factor 4E (Mus musculus, UniProt P63073)
- Sequence (P63073 whole entry): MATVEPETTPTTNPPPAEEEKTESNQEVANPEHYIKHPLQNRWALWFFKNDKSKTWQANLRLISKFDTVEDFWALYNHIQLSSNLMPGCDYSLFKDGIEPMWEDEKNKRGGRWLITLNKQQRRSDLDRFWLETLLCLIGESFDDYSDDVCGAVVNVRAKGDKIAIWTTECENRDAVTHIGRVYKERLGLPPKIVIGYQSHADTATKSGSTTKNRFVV
- MEASUREMENT NOTES: blockers of eIF4G binding by eIF4E – biochemical, TR-FRET, dose response (AID 855);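 further: potency for disrupting eIF4E binding to eIF4GI seen as loss of FRET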
- Format: functional
Activity calls are given as the source filed them.
MEASURED PROPERTY: IC50

>>> endpoint_result("Cc1cccc(Nc2nnc(S)s2)c1C")
"> 64 µM (inactive)"
>>> endpoint_result("CCOc1ccccc1OCCCCCc1c(C)n[nH]c1C")
"> 64 µM (inactive)"
>>> endpoint_result("Cc1ccc(CNC(=O)c2ccc(N3CCc4ccccc43)c([N+](=O)[O-])c2)cc1")
"> 64 µM (inactive)"
>>> endpoint_result("O=C1OC(c2cccs2)=N/C1=C/c1ccc(-c2cccc(C(=O)O)c2)o1")
"32.7 µM (inactive)"
>>> endpoint_result("CC1=C(C#N)C(=O)NC(=O)/C1=C\\c1ccc(-c2cc(C)c(C)cc2[N+](=O)[O-])o1")
"40.4 µM (inactive)"
